Molecular target: T1, recombinant hIL4R-his (human IL-4R extracellular domain with C-terminal His tag) (human (Homo sapiens), UniProt P24394 26-232)
T1 construct: The tag was added at the C-terminus; The protein was expressed in HEK293 cells; also called huIL4R
T1 sequence: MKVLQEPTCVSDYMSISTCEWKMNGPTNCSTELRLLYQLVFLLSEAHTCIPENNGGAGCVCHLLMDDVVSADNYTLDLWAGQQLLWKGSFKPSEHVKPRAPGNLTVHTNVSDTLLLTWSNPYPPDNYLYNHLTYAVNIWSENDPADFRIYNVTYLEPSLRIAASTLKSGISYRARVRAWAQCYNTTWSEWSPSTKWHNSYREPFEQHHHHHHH
Experiment: SPR Biacore X100, antibody captured by anti-human Fc, IL4R-his as analyte, 25 C
Parameter measured: koff (s⁻¹)
Numeric only. Scale: s⁻¹

INSERT INTO assay_data (binder, parameter_measured, unit_spec, val) VALUES
  ('L28G5-IgG4 (antibody, V domains shown, also called S1E6 light chain mutant L28G5) VH: EVQLVESGGGLVQPGGSLRLSCAVSGFTFSSYAMSWVRQAPGKGLEWVSSITGGGGGIYYADSVKGRFTISRDNSKNTVYLQMNSLRAEDTAVYYCAKDRISITIRPRYFGLDFWGQGTTVTVSS VL: DIVMTQSPLSLPVTPGEPASISCRSSRNVIYGNGYNYLDWYLQKSGQSPQLLIYLGNNVAAGVPDRFSGSGSGTDFTLKISRVEAEDVGFYYCMQSLQAPYTFGQGTKLEIKR', 'koff', 's⁻¹', 0.000134);

Kindly review the next binder as well.
Please fill in: koff reported for S1E6-IgG4 (antibody, V domains shown, also called monoclonal antibody S1E6) VH: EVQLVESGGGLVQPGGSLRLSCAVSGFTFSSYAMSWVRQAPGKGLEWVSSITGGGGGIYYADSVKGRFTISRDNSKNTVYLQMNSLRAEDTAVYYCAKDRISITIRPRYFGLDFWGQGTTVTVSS VL: DIVMTQSPLSLPVTPGEPASISCRSSRSVLYGNGYNYLDWYLQKSGQSPQLLIYLGTNVAAGVPDRFSGSGSGTDFTLKISRVEAEDVGFYYCMQSLRTPYTFGQGTKLEIKR = 0.000709

Data origin: patent US20220081485A1
